The measured values listed here are drawn from patent US7408065B2.

Counter-ions that a name gives are not always drawn.
propertyMeasured: melting point

# compound, propertyMeasured, measValue
data = [
    ("O=C(CC1CCCCC1)Nc1c(Cl)ccc2nc(N3CCNCC3)ccc12 (as salt: hydrochloride)", "melting point", "> 250 °C"),
    ("O=C(CC1CCCCC1)Nc1c(Cl)ccc2nc(CC3CCNCC3)ccc12 (as salt: hydrochloride)", "melting point", "170 to 175 °C"),
    ("CC1(CC(=O)Nc2c(Cl)ccc3nc(N4CCC(C(=O)O)CC4)ccc23)CCCCC1", "melting point", "210 to 212 °C"),
    ("O=C(CC1CCCCC1)Nc1c(Cl)ccc2nc(N3CC[C@@H](O)C3)ccc12", "melting point", "226 to 227 °C"),
    ("CCCCNCCCc1ccc2c(NC(=O)CC3CCCCC3)c(Cl)ccc2n1 (as salt: hydrochloride)", "melting point", "219 to 221 °C"),
    ("Cc1ccc2c(C(=O)NCC3CCCCC3)c(Cl)ccc2n1 (as salt: hydrochloride)", "melting point", "210 to 213 °C"),
    ("CNCC1CCCN1c1ccc2c(NC(=O)CC3CCCCC3)c(Cl)ccc2n1 (centres unmarked)", "melting point", "138 to 145 °C"),
    ("O=C(CC1CCCCC1)Nc1c(Cl)ccc2nc(N3CCC[C@@H]3C(=O)O)ccc12 (as salt: trifluoroacetate)", "melting point", "170 to 173 °C"),
]
